Attribute: growth inhibition
Assay: NCI Yeast Anticancer Drug Screen. Data for the rad50 strain (AID 155);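 further: 0% = growth of vehicle-only cultures of the same strain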
Conditions: S. cerevisiae rad50 strain growth inhibition; at 50.0 µM; active compounds read high
About 79,000 compounds went through this panel and 15% of them were active in at least one assay; those are over-represented in the sample as a whole. Where a SMILES comes first, the peptide text is derived from it. [ ]: non-standard residue; d: D form. The star is where a group is joined. ξ: configuration not given here. ξF = NC(Cc1ccccc1)C(=O)O; Cbz = O=C(OCc1ccccc1)*; Sar = CNCC(=O)O
measurementKind: growth inhibition (%)

compound=CCCCCCCC(N)=O measurementkind="growth inhibition" unitinfo=% val=15.7
compound="COC1OC(C(COC(=O)c2ccccc2)OC(=O)c2ccccc2)C(OC(=O)c2ccccc2)C1OS(C)(=O)=O (stereo not given)" measurementkind="growth inhibition" unitinfo=% val=5.35
compound="O=C1Nc2cc(Cl)ccc2N=CC1NC(=O)C(c1ccccc1)c1ccccc1Cl (stereo not given)" measurementkind="growth inhibition" unitinfo=% val=-33.1
compound="COC(=O)C1CCC(=O)N1Cc1csc(-c2ccccc2)n1 (stereo not given)" measurementkind="growth inhibition" unitinfo=% val=-12.1
compound=CCOC(=O)c1noc(Oc2ccc(Cl)cc2Cl)n1 measurementkind="growth inhibition" unitinfo=% val=-13.9
compound="O=S1OCC#CCOS(=O)OCC#CCO1 (stereo not given)" measurementkind="growth inhibition" unitinfo=% val=-7.1
compound=O=NN(CCOS(=O)(=O)c1ccc(Br)cc1)C(=O)NC1CCCCC1 measurementkind="growth inhibition" unitinfo=% val=32
compound="N#CC(c1ccc(Cl)cc1)c1cccc(C(C#N)c2ccc(Cl)cc2)n1 (stereo not given)" measurementkind="growth inhibition" unitinfo=% val=28.9
compound=O=C1c2ccccc2C(=O)N1CCn1[nH]c(=O)c2ccccc2c1=O measurementkind="growth inhibition" unitinfo=% val=-3.25
compound="O=C(O)C(Sc1ccccc1)c1ccccc1 (stereo not given)" measurementkind="growth inhibition" unitinfo=% val=0.8
compound="CC(=O)c1cccc(F)c1C(C)c1ccc2ccccc2c1 (stereo not given)" measurementkind="growth inhibition" unitinfo=% val=-3.85
compound="CC(=O)OC1C(COS(=O)(=O)c2ccc(C)cc2)OCOC(COS(=O)(=O)c2ccc(C)cc2)C1OC(C)=O (stereo not given)" measurementkind="growth inhibition" unitinfo=% val=0.2
compound="O=C(CCC1CCCCC1=O)c1ccc(Br)cc1 (stereo not given)" measurementkind="growth inhibition" unitinfo=% val=6.2
compound="CC(=O)C1C(=O)NC(=O)C1=O (stereo not given)" measurementkind="growth inhibition" unitinfo=% val=-2.9
compound=O=c1cc(-c2ccccc2)[nH]c2nccn12 measurementkind="growth inhibition" unitinfo=% val=-55
compound="CN(CC(=O)NC(Cc1ccccc1)C(=O)O)C(=O)OCc1ccccc1 (stereo not given) (Cbz-[Sar]-[ξF]-OH)" measurementkind="growth inhibition" unitinfo=% val=-16.9
compound=COC(c1ccccc1)c1ccccc1 measurementkind="growth inhibition" unitinfo=% val=-21.1
compound=Cc1cc(O)c(C(C)C)cc1CN1CCCCC1 measurementkind="growth inhibition" unitinfo=% val=0
compound="CCOC(=O)C1CCCc2sc(N)c(C#N)c21 (stereo not given)" measurementkind="growth inhibition" unitinfo=% val=1.15
compound=COc1cc(Cl)ccc1NC(=O)Oc1ccc2ccccc2c1 measurementkind="growth inhibition" unitinfo=% val=11.8
compound=Cc1ccc(C(=O)N(Cc2ccccc2)Cc2ccccc2)cc1N=NN(C)C measurementkind="growth inhibition" unitinfo=% val=-44.8
compound=[O-][N+](=Nc1ccccc1Cl)c1ccccc1Cl measurementkind="growth inhibition" unitinfo=% val=44
compound=CC(=O)CC(=O)Nc1cc(C)c(NC(=O)CC(C)=O)cc1C measurementkind="growth inhibition" unitinfo=% val=26.2
compound=C=C(C)COc1c(C)c(C)c(OCC(C)C)c(C)c1C measurementkind="growth inhibition" unitinfo=% val=-4.35
compound="CCCCCCC1(C=O)C(=O)NC(=O)N1C (stereo not given)" measurementkind="growth inhibition" unitinfo=% val=10.3

====

Reported values of growth inhibition for individual entries
Test: NCI Yeast Anticancer Drug Screen. Data for the rad50 strain (AID 155);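 further: 0% = growth of vehicle-only cultures of the same strain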
Details: S. cerevisiae rad50 strain growth inhibition; at 50.0 µM; active compounds read high
About 79,000 compounds went through this panel and 15% of them were active in at least one assay; those are over-represented in the sample as a whole.
measurementKind: growth inhibition (%)

compound=CCCCCC(=O)c1ccccc1 val=-27.9
compound=CCOCCOC(=O)/C=C/c1ccccc1 val=17.6
compound="CC(N)(CCBr)C(=O)O (stereo not given)" val=3.85
compound="CC(OC(=O)Nc1ccccc1)c1ccccc1 (stereo not given)" val=37.2
compound=CC(=O)SSC12CC3CC(CC(C3)C1)C2 val=-24.6
compound="CCCCCCC(C)Cl (stereo not given)" val=18.9
compound="Cc1nn(C(=O)c2ccc(Cl)cc2)c2c1C(c1ccccc1O)SC(N)=N2 (stereo not given)" val=-29.9
compound=COc1ccc2[nH]c(=O)ccc2c1 val=1.6
compound=CC(=O)N/N=C/c1ccc(C)cc1 val=6.6
compound=O=C(c1ccccc1)C1CCCCC1 val=1.05
compound=Cc1ccc(N=Nc2ccc(O)c(CN(C)C)c2)cc1 val=-14.6
compound=Cc1cc(NC(=O)COCC(=O)O)no1 val=-7.15
compound=CC(C)=CCC/C(C)=C/CO val=-48.8
compound="O=C(O)CNC(=O)C(Cc1ccccc1)NC(=O)CNC(=O)C(CSC(c1ccccc1)c1ccccc1)NC(=O)C(CSC(c1ccccc1)(c1ccccc1)c1ccccc1)N1C(=O)c2ccccc2C1=O (stereo not given)" val=1.5
compound="CC1=CC[N+](C)(C)C(C(N)=O)C1 (stereo not given)" val=-5

====

Test: NCI Yeast Anticancer Drug Screen. Data for the mec2-1 strain (AID 157)
Conditions: S. cerevisiae mec2-1 strain, at 50.0 µM, active compounds read high
The panel holds about 79,000 compounds, 15% with a hit somewhere; the sample as a whole holds those more often.
Outcome: fulfilled for growth inhibition of at least -10%; not fulfilled for anything lower.

compound=O=C1NC2(CCCCC2)C(=O)N1CCN1C(=O)NC2(CCCCC2)C1=O assignedcategory=fulfilled
compound=CN1CCS(=O)(=O)CC1 assignedcategory="not fulfilled"
compound=CN(C)CCCNC(=O)N/N=C\c1cccc2ccccc12 assignedcategory="not fulfilled"
compound=C=C(CN(C)C)C(=O)c1ccc(OC)cc1 assignedcategory=fulfilled
compound="COC(=O)Cc1ccccc1-n1nccc1S(C)=O (configuration not stated)" assignedcategory=fulfilled
compound="CC(=O)NC(Cc1ccccc1)c1ccccc1 (configuration not stated)" assignedcategory=fulfilled

====

Test: NCI Yeast Anticancer Drug Screen. Data for the sgs1 mgt1 strain (AID 161);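 further: 0% = growth of cultures given vehicle only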
Conditions: S. cerevisiae sgs1 mgt1 strain, at 50.0 µM, active compounds read high
Compounds without any hit were thinned out: in the full panel of roughly 79,000, 15% have a hit.
growth inhibition reference
measurementKind: growth inhibition (%)

compound="CCOC(=O)C1CCc2ccccc2C1=O (stereo not given)" measurementkind="growth inhibition" unitinfo=% val=5.85
compound=COc1ccc(CCCNC(=O)Cc2ccccc2CO)cc1OC measurementkind="growth inhibition" unitinfo=% val=-3.4
compound="O=c1[nH]c(=O)n(C2CC(O)C(CO)O2)cc1/C=C/Br (stereo not given)" measurementkind="growth inhibition" unitinfo=% val=-8.95
compound=O=C(Nc1ccc(Cl)cc1)Nc1nnc2nc(CC(=O)c3cccc([N+](=O)[O-])c3Cl)c(=O)[nH]n12 measurementkind="growth inhibition" unitinfo=% val=2.95
compound=COc1ccc(Cl)[n+]([O-])n1 measurementkind="growth inhibition" unitinfo=% val=-2
compound=NNC(=O)C1CC1 measurementkind="growth inhibition" unitinfo=% val=-5.65
compound=Cc1onc(-c2ccc(-c3noc(C)c3C(=O)O)cc2)c1C(=O)O measurementkind="growth inhibition" unitinfo=% val=-3.25
compound=Cc1ccc([Se](=C(C(=O)c2ccccc2)C(=O)c2ccccc2)c2ccc(C)cc2)cc1 measurementkind="growth inhibition" unitinfo=% val=35.7
compound=O=C1c2cccc3c(Br)ccc(c23)C(=O)N1C1CCCCCCCCCCC1 measurementkind="growth inhibition" unitinfo=% val=99.5
compound=Nc1ccccc1Br measurementkind="growth inhibition" unitinfo=% val=21.4
compound=CCCCCCC[CH2][Sn]1([CH2]CCCCCCC)[O]C(=O)c2cccnc2[O]1 measurementkind="growth inhibition" unitinfo=% val=13.2
compound="CCOC(=O)C1CSCN1C(C)=O (stereo not given)" measurementkind="growth inhibition" unitinfo=% val=-4.3
compound=CCCOC(=O)CCCCCC1CCCCC1 measurementkind="growth inhibition" unitinfo=% val=-5.8
compound=FC(F)(F)c1nc(Cl)c2cn[nH]c2n1 measurementkind="growth inhibition" unitinfo=% val=-1.15
compound=O=C(O)c1cc([N+](=O)[O-])ccc1Oc1cccc([N+](=O)[O-])c1 measurementkind="growth inhibition" unitinfo=% val=1.2
compound=COC(=O)c1nc(N)nc(C(=O)OC)c1C(=O)c1ccc2ccccc2c1 measurementkind="growth inhibition" unitinfo=% val=10.8
compound=CC(=O)Nc1ccc2nc(N)sc2c1 measurementkind="growth inhibition" unitinfo=% val=-16.1
compound="CC1CC=CCC1COB(OCC1CC=CCC1C)OCC1CC=CCC1C (stereo not given)" measurementkind="growth inhibition" unitinfo=% val=29.1
compound=COC(=O)/C(C#N)=C1\NC(=O)c2ccccc21 measurementkind="growth inhibition" unitinfo=% val=11.6
compound=C[C@@]1(NC(=O)Cc2ccccc2)C(=O)N2CCS[C@@]21c1ccccc1 measurementkind="growth inhibition" unitinfo=% val=-20.6
compound=CCN(CC)C(=O)c1cccc(N)c1 measurementkind="growth inhibition" unitinfo=% val=11.5
compound="CC(C)CCCC(C)C1CCC2(C)C3CCC(C(C)O)C(C)(CCCO)C3CCC12C (stereo not given)" measurementkind="growth inhibition" unitinfo=% val=61.4
compound=Cc1n[nH]c(=O)[nH]c1=O measurementkind="growth inhibition" unitinfo=% val=-2.7
compound=c1ccc(CCN2CCN=C2Cc2ccccc2)cc1 measurementkind="growth inhibition" unitinfo=% val=0.95
compound=Nc1cc(Cl)c2c(c1)C(=O)c1ccccc1-2 measurementkind="growth inhibition" unitinfo=% val=-3.95

The measurements presented in this section are drawn from PubChem BioAssay (NCI).
